# Assay summary: XTT proliferation (cytotoxicity) assay, normal fibroblasts
# Type: cell-based, mouse
# Test conditions: mouse, NIH-3T3 normal mouse fibroblasts; NIH3T3, pH 6, 24 h; read-out: Lethal Concentration (LC50)
Square brackets hold non-standard residues; d marks the D form. Peptide text beside a SMILES is read from it.
Record form. Attribute: CC50 at 24 h. Fill in for each entry.
# value in µg/mL; strip the unit string

Item: CC(C)C[C@H](NC(=O)[C@H](CC(C)C)NC(=O)[C@@H](CCCCN)NC(=O)[C@H](CC(C)C)NC(=O)[C@H](CC(C)C)NC(=O)[C@H](Cc1c[nH]cn1)NC(=O)[C@@H](CCCCN)NC(=O)[C@@H](CC(C)C)NC(=O)[C@H](CC(C)C)NC(=O)[C@@H](CCCCN)NC(=O)[C@H](Cc1c[nH]cn1)NC(=O)[C@H](CC(C)C)NC(=O)[C@@H](CC(C)C)NC(=O)[C@H](CCCCN)NC(=O)[C@@H](N)CC(C)C)C(N)=O [Peptide 13] (H-LK[dL]LH[dK]L[dL][dK]HLL[dK]LL-NH2) | CC50 at 24 h: 19

Item: CC(C)C[C@H](NC(=O)[C@H](CC(C)C)NC(=O)[C@@H](Cc1c[nH]cn1)NC(=O)[C@H](CC(C)C)NC(=O)[C@H](CC(C)C)NC(=O)[C@H](Cc1c[nH]cn1)NC(=O)[C@@H](Cc1c[nH]cn1)NC(=O)[C@@H](CC(C)C)NC(=O)[C@H](CC(C)C)NC(=O)[C@@H](CCCCN)NC(=O)[C@H](Cc1c[nH]cn1)NC(=O)[C@H](CC(C)C)NC(=O)[C@@H](CC(C)C)NC(=O)[C@H](Cc1c[nH]cn1)NC(=O)[C@@H](N)CC(C)C)C(N)=O [Peptide 16] (H-LH[dL]LH[dK]L[dL][dH]HLL[dH]LL-NH2) | CC50 at 24 h: 25

Item: CC(C)C[C@H](NC(=O)[C@H](CC(C)C)NC(=O)[C@@H](CCCCN)NC(=O)[C@H](CC(C)C)NC(=O)[C@H](CC(C)C)NC(=O)[C@H](CCCCN)NC(=O)[C@@H](CCCCN)NC(=O)[C@@H](CC(C)C)NC(=O)[C@H](CC(C)C)NC(=O)[C@@H](CCCCN)NC(=O)[C@H](CCCCN)NC(=O)[C@H](CC(C)C)NC(=O)[C@@H](CC(C)C)NC(=O)[C@H](CCCCN)NC(=O)[C@@H](N)CC(C)C)C(N)=O [Peptide 1, reference compound] (H-LK[dL]LK[dK]L[dL][dK]KLL[dK]LL-NH2) | CC50 at 24 h: 25

Item: CC(C)C[C@H](NC(=O)[C@H](CC(C)C)NC(=O)[C@@H](CCCCN)NC(=O)[C@H](CC(C)C)NC(=O)[C@H](CC(C)C)NC(=O)[C@H](Cc1c[nH]cn1)NC(=O)[C@@H](CCCCN)NC(=O)[C@@H](CC(C)C)NC(=O)[C@H](CC(C)C)NC(=O)[C@@H](CCCCN)NC(=O)[C@H](Cc1c[nH]cn1)NC(=O)[C@H](CC(C)C)NC(=O)[C@@H](CC(C)C)NC(=O)[C@H](Cc1c[nH]cn1)NC(=O)[C@@H](N)CC(C)C)C(N)=O [Peptide 14] (H-LH[dL]LH[dK]L[dL][dK]HLL[dK]LL-NH2) | CC50 at 24 h: 25
